Assay Explanation: Drug interaction study of pemafibrate with clarithromycin (plasma pharmacokinetics of pemafibrate)
Type: in vivo, healthy adult subjects
Condition Label: human, plasma, po, 0.4 mg, geometric mean; Day 9, pemafibrate 0.4 mg single dose with clarithromycin 500 mg twice per day (given from Day 4); read-out: AUC0-inf, concomitant administration
Result Type: AUC(0-inf)
Include the unit right after the number.

So for CC[C@@H](Oc1cccc(CN(CCCOc2ccc(OC)cc2)c2nc3ccccc3o2)c1)C(=O)O [pemafibrate] , the logged AUC(0-inf) turned out to be 35.7 ng·h/mL

###

Assay Explanation: Drug interaction study of pemafibrate with rifampicin (plasma pharmacokinetics of pemafibrate)
Format: in vivo, healthy adult subjects
Condition Label: human, plasma, po, 0.4 mg, geometric mean; Day 1, pemafibrate 0.4 mg alone, oral, fasting; read-out: Cmax, single administration
Result Type: Cmax (ng/mL)
Only the number, expressed in ng/mL, is required.

Form: compound = CC[C@@H](Oc1cccc(CN(CCCOc2ccc(OC)cc2)c2nc3ccccc3o2)c1)C(=O)O [pemafibrate] ; Cmax = 5.67

###

Assay Explanation: Drug interaction study of pemafibrate with clopidogrel (plasma pharmacokinetics of pemafibrate)
Type: in vivo, healthy adult subjects
Condition Label: human, plasma, po, 0.4 mg, geometric mean; Day 1, pemafibrate 0.4 mg alone, oral, fasting; read-out: Cmax, single administration
Result Type: Cmax
Phrase the answer as number then unit, nothing more needed.

Per the record, CC[C@@H](Oc1cccc(CN(CCCOc2ccc(OC)cc2)c2nc3ccccc3o2)c1)C(=O)O [pemafibrate] has Cmax of 4.77 ng/mL

###

Assay Explanation: Drug interaction study of pemafibrate with clopidogrel (plasma pharmacokinetics of pemafibrate)
Format: in vivo, healthy adult subjects
Condition Label: human, plasma, po; geometric mean; Day 7, pemafibrate 0.4 mg plus clopidogrel sulfate 91.875 mg (equivalent to 75 mg of clopidogrel) after repeated administration of clopidogrel; read-out: Cmax, concomitant administration
Result Type: Cmax (ng/mL)
All answers are understood in ng/mL, so give the number only.

Value of Cmax reported for the compound CC[C@@H](Oc1cccc(CN(CCCOc2ccc(OC)cc2)c2nc3ccccc3o2)c1)C(=O)O [pemafibrate] is 6.39

###

Assay Explanation: Drug interaction study of pemafibrate with rifampicin (plasma pharmacokinetics of pemafibrate)
Type: in vivo, healthy adult subjects
Condition Label: human, plasma, po, 0.4 mg, geometric mean; Day 1, pemafibrate 0.4 mg alone, oral, fasting; read-out: AUC0-inf, single administration
Result Type: AUC(0-inf) (ng·h/mL)
# output: bare number, implied unit ng·h/mL

AUC(0-inf) reported for this compound CC[C@@H](Oc1cccc(CN(CCCOc2ccc(OC)cc2)c2nc3ccccc3o2)c1)C(=O)O [pemafibrate] : 20.1

###

Assay Explanation: Drug interaction study of pemafibrate with clopidogrel (plasma pharmacokinetics of pemafibrate)
Format: in vivo, healthy adult subjects
Condition Label: human, plasma, po, 0.4 mg, geometric mean; Day 1, pemafibrate 0.4 mg alone, oral, fasting; read-out: AUC0-inf, single administration
Protocol: A study was conducted to investigate the effect of clopidogrel on the pharmacokinetics of pemafibrate in healthy adult subjects. Subjects were orally administered on the following schedule. […] Plasma concentration of pemafibrate was measured on blood samples from patients taken prior to and at 0.25, 0.5, 1, 1.5, 2, 3, 4, 6, 8, 10, 12, 14, 16, 24, 36, 48, 72 hours after administration of the drug on Days 1, 4, and 7. […]
Result Type: AUC(0-inf) (ng·h/mL)
Write it as a number; the unit ng·h/mL goes unstated.

Measured AUC(0-inf), CC[C@@H](Oc1cccc(CN(CCCOc2ccc(OC)cc2)c2nc3ccccc3o2)c1)C(=O)O [pemafibrate] : 16.1

###

Assay Explanation: Drug interaction study of pemafibrate with clarithromycin (plasma pharmacokinetics of pemafibrate)
Type: in vivo, healthy adult subjects
Condition Label: human, plasma, po, 0.4 mg, geometric mean; Day 9, pemafibrate 0.4 mg single dose with clarithromycin 500 mg twice per day (given from Day 4); read-out: Cmax, concomitant administration
Result Type: Cmax (ng/mL)
Please state the figure in ng/mL; there is no need to write the unit.

The reported Cmax of the molecule CC[C@@H](Oc1cccc(CN(CCCOc2ccc(OC)cc2)c2nc3ccccc3o2)c1)C(=O)O [pemafibrate] was 11.3

###

Assay Explanation: Drug interaction study of pemafibrate with clarithromycin (plasma pharmacokinetics of pemafibrate)
Type: in vivo, healthy adult subjects
Condition Label: human, plasma, po, 0.4 mg, geometric mean; Day 1, pemafibrate 0.4 mg alone, oral, fasting; read-out: AUC0-inf, single administration
Result Type: AUC(0-inf) (ng·h/mL)
Write the answer as a number in ng·h/mL, unit excluded.

# compound CC[C@@H](Oc1cccc(CN(CCCOc2ccc(OC)cc2)c2nc3ccccc3o2)c1)C(=O)O [pemafibrate] ; its AUC(0-inf) = 17

###

Assay Explanation: Drug interaction study of pemafibrate with cyclosporine (plasma pharmacokinetics of pemafibrate)
Type: in vivo, healthy adult subjects
Condition Label: human, plasma, po, 0.4 mg, geometric mean; Day 1, pemafibrate 0.4 mg alone, oral, fasting; read-out: Cmax, single administration
Protocol: A study was conducted to investigate the effect of cyclosporine on the pharmacokinetics of pemafibrate in healthy adult subjects. Subjects were orally administered on the following schedule. […] Plasma concentration of pemafibrate was measured on blood samples from patients taken prior to and at 0.25, 0.5, 1, 1.5, 2, 3, 4, 6, 8, 10, 12, 14, 16, 24, 36, 48, 72 hours after administration of the drug on Days 1 and 4. […]
Result Type: Cmax (ng/mL)
Your answer should be a plain number; it is taken to be in ng/mL.

The recorded Cmax for CC[C@@H](Oc1cccc(CN(CCCOc2ccc(OC)cc2)c2nc3ccccc3o2)c1)C(=O)O [pemafibrate] is 4.59

###

Assay Explanation: Drug interaction study of pemafibrate with cyclosporine (plasma pharmacokinetics of pemafibrate)
Format: in vivo, healthy adult subjects
Condition Label: human, plasma, po, 0.4 mg, geometric mean; Day 4, combined single dose pemafibrate 0.4 mg and cyclosporine 600 mg, oral, fasting; read-out: Cmax, concomitant administration
Result Type: Cmax (ng/mL)
State the answer as a number, implicitly in ng/mL.

Memo: CC[C@@H](Oc1cccc(CN(CCCOc2ccc(OC)cc2)c2nc3ccccc3o2)c1)C(=O)O [pemafibrate] , reported Cmax: 41.2

###

Assay Explanation: Drug interaction study of pemafibrate with clopidogrel (plasma pharmacokinetics of pemafibrate)
Assay type: in vivo, healthy adult subjects
Condition Label: human, plasma, po, 0.4 mg, geometric mean; Day 4, single dose pemafibrate 0.4 mg plus clopidogrel sulfate 391.5 mg (equivalent to 300 mg of clopidogrel); read-out: Cmax, concomitant administration
Result Type: Cmax (ng/mL)
# value in ng/mL; strip the unit string

Sample CC[C@@H](Oc1cccc(CN(CCCOc2ccc(OC)cc2)c2nc3ccccc3o2)c1)C(=O)O [pemafibrate] ; Cmax observed: 7.08

###

Assay Explanation: Drug interaction study of pemafibrate with clarithromycin (plasma pharmacokinetics of pemafibrate)
Assay type: in vivo, healthy adult subjects
Condition Label: human, plasma, po, 0.4 mg, geometric mean; Day 1, pemafibrate 0.4 mg alone, oral, fasting; read-out: Cmax, single administration
Protocol: A study was conducted to investigate the effect of clarithromycin on the pharmacokinetics of pemafibrate in healthy adult subjects. 20 healthy adult subjects Subjects were orally administered on the following schedule. […] Plasma concentration of pemafibrate was measured on blood samples from patients collected prior to and at 0.25, 0.5, 1, 1.5, 2, 3, 4, 6, 8, 10, 12, 14, 16, 24, 36, 48, 72 hours after administration of 0.4 mg of pemafibrate on Days 1 and 9. […]
Result Type: Cmax (ng/mL)
Kindly answer with a numeric value in ng/mL, unit omitted.

Recorded Cmax (compound CC[C@@H](Oc1cccc(CN(CCCOc2ccc(OC)cc2)c2nc3ccccc3o2)c1)C(=O)O [pemafibrate] ): 4.67
